All values here come from PubChem BioAssay AID1963451.

Consider the following compounds; for each one, report its viability, T/C.
- Test system: 521955-158-R6-J3-PDC complex spheroid growth, % test/control;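 further: spheroids exposed to compounds for 7 days; 100% = DMSO vehicle control wells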
- protocol-summary: Anticancer human tumor 521955-158-R6-J3-PDC patient-derived pancreatic carcinoma cell line growth inhibition [Asc]
- condition-details: second compound 0.0316 µM; first compound 0.01 µM; active compounds read low

Known viability, T/C results, listed for orientation:
>  <compound>
Cn1ncnc1[C@H]1c2n[nH]c(=O)c3cc(F)cc(c23)N[C@@H]1c1ccc(F)cc1 + CNC(C)C(=O)NC1CN(S(=O)(=O)c2cccc(S(=O)(=O)N3CCC4CCC(C(=O)NC(c5ccccc5)c5ccccc5)N4C(=O)C(NC(=O)C(C)NC)C3)c2)CCC2CCC(C(=O)NC(c3ccccc3)c3ccccc3)N2C1=O

>  <viability, T/C>
74.6%

$$$$
>  <compound>
CCN1CCN(Cc2ccc(Nc3ncc(F)c(-c4cc(F)c5nc(C)n(C(C)C)c5c4)n3)nc2)CC1 + Cc1c(S(C)(=O)=O)c(-c2cc(F)cc(N3CCN(c4ccc(NS(=O)(=O)c5ccc(NC(CCN6CCC(C(=O)OCCCP(=O)(O)O)CC6)CSc6ccccc6)c(S(=O)(=O)C(F)(F)F)c5)cc4)CC3)c2)c(-c2ccc(Cl)cc2)n1C(C)C

>  <viability, T/C>
81%

$$$$
>  <compound>
NC1CCC(NC2CC2c2ccccc2)CC1 (stereo not given) + CNC(C)C(=O)NC1CN(S(=O)(=O)c2cccc(S(=O)(=O)N3CCC4CCC(C(=O)NC(c5ccccc5)c5ccccc5)N4C(=O)C(NC(=O)C(C)NC)C3)c2)CCC2CCC(C(=O)NC(c3ccccc3)c3ccccc3)N2C1=O

>  <viability, T/C>
93.1%

$$$$
>  <compound>
NC1CCC(NC2CC2c2ccccc2)CC1 (stereo not given) + Cc1c(S(C)(=O)=O)c(-c2cc(F)cc(N3CCN(c4ccc(NS(=O)(=O)c5ccc(NC(CCN6CCC(C(=O)OCCCP(=O)(O)O)CC6)CSc6ccccc6)c(S(=O)(=O)C(F)(F)F)c5)cc4)CC3)c2)c(-c2ccc(Cl)cc2)n1C(C)C

>  <viability, T/C>
92.7%

$$$$

Then this compound:
Reported viability, T/C ( O=C(c1ccc(F)c(F)c1Nc1ccc(I)cc1F)N1CC(O)([C@@H]2CCCCN2)C1 + CNC(C)C(=O)NC1CN(S(=O)(=O)c2cccc(S(=O)(=O)N3CCC4CCC(C(=O)NC(c5ccccc5)c5ccccc5)N4C(=O)C(NC(=O)C(C)NC)C3)c2)CCC2CCC(C(=O)NC(c3ccccc3)c3ccccc3)N2C1=O ) = 88.6%
